Values were extracted from PubChem BioAssay AID1345083.

protocol_notes: Cytotoxic Profiling in HEK 293 Cell Line of Diverse Libraries Using Quantitative High-Throughput Screening; also: nearly all actives have a fitted effect of over 60% in size
details: HEK 293 viability, ATP luminescence (CellTiter-Glo), 48-72 h; series mostly up to 115 µM
Among all 94,000 compounds or so, about 6,200 (6.6%) were called active. About 31% were inconclusive and are not listed. Calls follow the shape of the dose curve; as a rule, active = well fitted inhibition curve with a large enough effect; inconclusive = small, poorly fitted or top-dose-only effect; inactive = flat fitted curve, though single readings scatter. Only a selection was taken, and actives are over-represented in it overall.
A correct response names exactly one class from active, inactive

Hey, what did the test say about CN1CCN(C(=O)c2ccc3nnc(C(C)(C)C)n3c2)CC1 ?
inactive

I'd appreciate the recorded outcome for COc1cccc([S+](=O)([O-])N2CCC(C(=O)N3CCC(N4CCOCC4=O)CC3)CC2)c1 from this test.
inactive

Hi, sorry to bother you, what did the test record for Cn1ncc2c(C(=O)NCc3ccc4c(c3)OCO4)cc(-c3ccc(Cl)nc3)nc21 ?
inactive

Hi, do you know how CCNC(=O)O[C@@H]1CO[C@H]2[C@@H]1OC[C@@H]2NC(=S)Nc1cccc2ccccc12 came out in this test?
active

GET /call?item= CC(C)C1=NOC2(CCN(C3CCCCC3)CC2)C1 returns the recorded outcome of this test.
inactive

In this assay, the call recorded for COc1ccc(CC(=O)NC2CCCc3c2[nH]c2ccccc32)cc1 (stereo unspecified) was what?
active

Please let me know the test result on file for Cc1cc(C[C@@H]2COC[C@@H]2NC(=O)CCCc2nc(-c3ccco3)no2)on1 .
inactive

Dear all, I need the recorded test outcome for O=C1CCCCC(CNC(=O)c2cccc(F)c2)N1 (stereo unspecified) , thank you.
inactive

Status in this test for O=S(=O)(c1ccccc1)N1CCN(c2ccnc3ccnn23)CC1 ?
inactive

Please let me know the test result on file for Cc1cc(C)n(-c2ccc(NC(=O)CC[C@H]3NC(=O)c4ccccc4NC3=O)cc2)n1 .
inactive

So what was the verdict on COc1ccc(C(=O)N[C@@H]2CCC[C@@H]2C(=O)NCc2cccc(OC)c2)cc1 in this test?
inactive

Call for entry O=C(Cc1cccc(Cl)c1)N1CCC2(CC1)CN[S+](=O)([O-])c1cccnc1O2 :
inactive

Any idea what this test logged for O=C1CC2(CCN(C(=O)C3CCN(C(=O)Cc4ccccn4)CC3)CC2)Oc2ccccc2N1 ?
inactive

How did this test come out for CCCN(CC1CCOC1)S(=O)(=O)c1ccc(C(F)(F)F)cc1 (stereo unspecified) ?
inactive

Field: outcome | Entry: Cc1nc(CCNS(=O)(=O)Cc2cccc(Cl)c2)no1
inactive

Per the records of this test, what outcome belongs to CC1(C(=O)NCc2ccc3c(c2)OCO3)CCc2cnc(NCc3ccccc3)nc21 (stereo unspecified) ?
active

Short answer needed: outcome of this test for N#Cc1cccc(NC(=O)O[C@@H]2CO[C@H]3[C@@H]2OC[C@@H]3Nc2nccc(-c3ccccc3)n2)c1 ?
active

Please share the test call associated with O=S(=O)(c1ccccc1)N1CCC(F)(c2nc(Cc3ccccc3)no2)CC1 .
active

Assay outcome for O=C(Nc1cccn2nc(C3CCC3)nc12)c1cccc(F)c1 : what was it?
active

Per the assay record, what outcome was assigned to O=C(NCc1cc2n(n1)CCCN(C1CCCCC1)C2)c1cccc(F)c1 ?
inactive

Which outcome was entered for the compound c1ccc2c(c1)CNC1(CCN(Cc3cccc4ccccc34)CC1)CO2 in this test?
active

Any idea what this test logged for CC(C)CN1CC2(CCN(C(=O)c3conc3-c3ccccc3)CC2)CC1=O ?
inactive

Could you check what this test reported for O=C1CCN(C(=O)C2COc3ccccc3O2)CCOCCN1 (stereo unspecified) ?
inactive

What did this assay record as the result for CCOCc1nc(C2CCCN(C(=O)NC(C)C)C2)no1 (stereo unspecified) ?
inactive

Status in this test for CCCCCC(=O)N1CC[C@H]2COC(=O)N2c2cc(F)ccc2C1 ?
inactive

# outcome recorded in this test, key = CC(C)C(=O)N1CC(n2cc(COc3ccc(F)cc3)nn2)C1
inactive

Record request — test call for COc1ccc(NC(=O)O[C@@H]2CO[C@H]3[C@@H]2OC[C@@H]3NC(=O)NC2CCCCC2)cc1
inactive

I'd appreciate the recorded outcome for Cc1cc2nc3n(c(=O)c2n1CC(=O)Nc1ccc(Br)cc1)CCCC3 from this test.
inactive

Record request — test call for Cc1ccc(C)c2c(=O)cc(CN3CCN(CCn4cncn4)CC3)[nH]c12
inactive

Hi team, can someone confirm the assay call for Cc1cc2nc3n(c(=O)c2n1CC(=O)Nc1cc(F)cc(F)c1)CCCC3 ?
inactive

GET /call?item= CCc1nc(-c2c3n(c(=O)n(CC(=O)Nc4cccc(Cl)c4C)c2=O)CCCC3)no1 returns the recorded outcome of this test.
inactive

###

protocol_notes: Cytotoxic Profiling in HEK 293 Cell Line of Diverse Libraries Using Quantitative High-Throughput Screening; also: nearly all actives have a fitted effect of over 60% in size
details: HEK 293 viability, ATP luminescence (CellTiter-Glo), 48-72 h; series mostly up to 115 µM
In all, about 94,000 compounds went through this assay and about 6,200 (6.6%) were called active. Roughly 31% stayed inconclusive and do not appear here. Calls come from the whole dose curve; as a rule, active = well fitted inhibition curve with a large enough effect; inconclusive = small, poorly fitted or top-dose-only effect; inactive = flat fitted curve, though single readings scatter. What follows is part of a selection rich in actives, with near analogues and random picks from the rest.
Assign a class; possible classes are 1 for active, 0 for inactive

Identify the outcome logged in this assay for the molecule shown: CC(C)CC(=O)N1CCCN(c2nnc3ccccn23)CC1
0

Assay outcome for Cc1ccc(CN2C(=O)[C@@H]3C[C@@H](O)CN3C3(CN(Cc4ccccn4)C3)C2=O)o1 : what was it?
0

Dear all, I need the recorded test outcome for COC1C(=O)N(c2cccc(F)c2)C12CCN(C(=O)C1(c3ccccc3)CC1)CC2 (stereo unspecified) , thank you.
1

Which outcome was entered for the molecule N#Cc1cccc(C(=O)Nc2ccc([C@H]3OCC(=O)N(Cc4ccccc4)[C@@H]3CO)cc2)c1 in this test?
0

Assay result, entry CNC(=O)[C@@H]1C[C@@H](O)CN1C1CCN(C(=O)C2(c3ccccc3)CC2)CC1 — outcome?
0

What outcome does the record of this test show for COc1cccc(-c2cc(C(=O)Nc3cccc(Cl)c3)c3cnn(C)c3n2)c1 ?
1

###

protocol_notes: Cytotoxic Profiling in HEK 293 Cell Line of Diverse Libraries Using Quantitative High-Throughput Screening; also: nearly all actives have a fitted effect of over 60% in size
details: HEK 293 viability, ATP luminescence (CellTiter-Glo), 48-72 h; series mostly up to 115 µM
Out of some 94,000 compounds screened, about 6,200 (6.6%) were called active. Not shown: some 31% with an inconclusive outcome. Calls come from the whole dose curve; as a rule, active = well fitted inhibition curve with a large enough effect; inconclusive = small, poorly fitted or top-dose-only effect; inactive = flat fitted curve, though single readings scatter. The sample holds actives, similar compounds and a random draw of the others, so the mix is not that of the screen.
Give one outcome, nothing more. List: Y for active, N for inactive

Per the records of this test, what outcome belongs to Cc1ccc(CN[C@@H]2CO[C@H](CNC(=O)N3CCOCC3)[C@H]2O)cc1 ?
N

I would be grateful if you could indicate the recorded call for CCCCc1cc(C[C@H]2CNCC[C@H]2CC(=O)N2CCC(n3c(=O)[nH]c4ccccc43)CC2)no1 .
N

Hi, sorry to bother you, what did the test record for CN(c1ccccc1)c1cc(=O)c2ccnc(Nc3cccc([S+](C)(=O)[O-])c3)c2o1 ?
Y

###

protocol_notes: Cytotoxic Profiling in HEK 293 Cell Line of Diverse Libraries Using Quantitative High-Throughput Screening; also: nearly all actives have a fitted effect of over 60% in size
details: HEK 293 viability, ATP luminescence (CellTiter-Glo), 48-72 h; series mostly up to 115 µM
The whole screen tested about 94,000 compounds, of which about 6,200 (6.6%) were called active. Another 31% or so got no clear call; they are omitted. Calls come from the whole dose curve; as a rule, active = well fitted inhibition curve with a large enough effect; inconclusive = small, poorly fitted or top-dose-only effect; inactive = flat fitted curve, though single readings scatter. Shown is part of a subset that was picked to be rich in actives.
Outcomes you can answer with include only these: active, inactive

Could you kindly confirm the outcome this assay logged for C=C(C)CCC(C)N1CCC(N2CCC(C(=O)NCc3ccccn3)CC2)CC1 (centres undefined) ?
inactive

Dear all, I need the recorded test outcome for CN(C)CCNC(=O)C(C)(C)Oc1nn(Cc2cccc(Cl)c2)c2ccccc12 , thank you.
active

GET /call?item= CN1CCN(C(=O)C(C)(C)Oc2nn(Cc3cccc(Cl)c3)c3ccccc23)CC1 returns the recorded outcome of this test.
active

Please indicate how the test categorized Cc1ccc(C)c(NC(=O)Cn2nc3n(c2=O)CCCCC3)c1 .
inactive

What is the recorded call for this compound in the test? COc1ccc(CCC(=O)N2C[C@@H](Oc3ccccc3)C[C@H]2C(=O)N2CCOCC2)cc1
inactive

So what was the verdict on CNC(=O)c1cc(C)nc2onc(C3CCCN3C(=O)C3CCCC3)c12 (centres undefined) in this test?
inactive

Which result was noted for this compound in the test: O=C1CC(c2ccccc2)N(Cc2ccncc2)CCCN(C(=O)COc2ccccc2)CCN1 (centres undefined)
inactive

Given CC/C=C(\C)CN1CCC2(CC1)Cc1ccccc1CNC2=O , state the outcome it received in this test.
inactive

How was COCc1ccc2c(c1)c(OC(C)(C)C(=O)NC1CCC(O)CC1)nn2Cc1cccnc1 (centres undefined) classified in this test?
inactive

Give the logged outcome of this assay for the following compound: O=C(NCc1ccco1)C1CCCN(c2cnn(Cc3ccccc3)c(=O)c2)C1 (centres undefined)
inactive

Recorded test call requested for COC[C@@H]1CN(C(=O)Cn2cc(C)cn2)C[C@H]1c1ccccn1
inactive

Entry CC(C(=O)NC1CCCCC1)[C@@H]1CC[C@@]2(C)CC[C@H](N[S+](C)(=O)[O-])[C@@H](C)[C@@H]2[C@H]1O (some centres undefined) : call = ?
inactive

Please share the test call associated with COc1ccc(CN2CCC[C@H]2c2nc(-c3ccc(N(C)C)nc3)no2)c(O)c1 .
inactive

Answer briefly: the call reported for COc1ccc(F)cc1-c1ccc(CN2CCCCC2C(=O)NCc2ccccn2)cc1 (centres undefined) in this assay.
active
